Where do these numbers come from? They come from PubChem BioAssay.

Test: S. cerevisiae growth modulation with rapamycin, primary screen, strain BY4716, OD600, 96 h (AID 1091); note: test concentration not given here
Settings: higher = more signal, called active from +8 up or from −8 down
measurement_kind: z-score
# respond with the number and nothing more

# input Return reported z-score. Input compound: CC(C)(C)N1C(=O)[C@H]2[C@H]3[C@H](O)[C@H](O)CC(=NOCc4ccccc4)[C@H]3CC[C@H]2C1=O
# output -0.22

# input Return reported z-score. Input compound: Cc1ccc(S(=O)(=O)N[C@H]2COC(=O)CC=C[C@@H](C)COC(=O)CC=C[C@@H]2C)cc1
# output 0.247

# input Return reported z-score. Input compound: C[C@H]1CC[C@H]2C(=O)OC(CO)CN2[C@@H]1c1ccc(Br)cc1 (stereo not given in full)
# output 0.603

# input Return reported z-score. Input compound: COc1ccc(O[C@H]2C=C[C@@H](c3ccccc3)O[C@@H]2CON=C(C)CCN2CCc3nc(-c4ccccc4)c(-c4ccccc4)cc3C2)cc1
# output -2.92

# input Return reported z-score. Input compound: C[C@@H](c1ccccc1)N1C(=O)[C@H]2[C@H]3[C@H](O)[C@H](O)CC(=O)[C@H]3CC[C@H]2C1=O
# output 0.134

# input Return reported z-score. Input compound: Cc1ccc(S(=O)(=O)n2c3ccccc3c3nnc(C(=O)c4ccccc4)nc32)cc1
# output 0.881

# input Return reported z-score. Input compound: C[C@H](ON=C1[C@H]2CCn3c(=O)n(-c4ccccc4)c(=O)n3[C@H]2[C@H](O)[C@@H]2O[C@H]12)c1cn([C@H](CO)Cc2ccccc2)nn1
# output -0.173

# input Return reported z-score. Input compound: CCC(=O)[C@@]1(O)C(=O)N2C(=C3C(=O)OCC[C@@H]31)N(Cc1ccccc1)C(C)=C(C(=O)OC)[C@H]2c1ccccc1
# output 0.0739

# input Return reported z-score. Input compound: CCCNC(=O)OC[C@H]1O[C@H](CCON=C(C)C)C=C[C@@H]1Oc1ccc(OC)cc1
# output 0.0158

# input Return reported z-score. Input compound: CCOC(=O)[C@H](CC(C)C)NC(=O)CCC1CC(OC(=O)NCc2cccc3ccccc23)CC2(CCCC(COC(=O)NCCOc3ccccc3)O2)O1 (stereo not given in full)
# output 0.231

# input Return reported z-score. Input compound: COc1cccc([C@H]2Oc3ccc(OC)cc3C(=NO[C@@H]3O[C@H](COC(C)=O)[C@@H](OC(C)=O)[C@H](OC(C)=O)[C@H]3OC(C)=O)[C@@H]2O)c1
# output -0.239

# input Return reported z-score. Input compound: COC(=O)[C@H](C)NC(=O)CCC1CC(OC(=O)NCc2ccc3c(c2)OCO3)CC2(CCCC(COC(=O)NCC(c3ccccc3)c3ccccc3)O2)O1 (stereo not given in full)
# output -0.122

# input Return reported z-score. Input compound: C=C(C)C(=O)OCC1CN2[C@@H](CC[C@@H](C)[C@@H]2c2ccc(Br)cc2)C(=O)O1 (stereo not given in full)
# output -0.427

# input Return reported z-score. Input compound: C[C@@H](ON=C1[C@H]2CCn3c(=O)n(-c4ccccc4)c(=O)n3[C@H]2[C@H](O)[C@@H]2O[C@H]12)c1cn([C@@H]2COC[C@H]2O)nn1
# output 0.0921

# input Return reported z-score. Input compound: O=C1C[C@@H](O)[C@@H](O)[C@@H]2[C@@H]3C(=O)N(c4cccc(Oc5ccccc5)c4)C(=O)[C@@H]3CC[C@H]12
# output 0.469
